# SYSTEM TESTED: T1, Bim1 (yeast homolog of EB1), recombinant (S. cerevisiae, UniProt P40013 1-344)
# T1 construct: Bim1, S. cerevisiae microtubule plus end-tracking protein; CH domain, linker, coiled coil, EBH domain, C-terminal ETF; also called Bim1/EB1; source: E. coli, purified (GSTrap, further steps as in Zimniak et al 2009)
# T1 sequence (looked up): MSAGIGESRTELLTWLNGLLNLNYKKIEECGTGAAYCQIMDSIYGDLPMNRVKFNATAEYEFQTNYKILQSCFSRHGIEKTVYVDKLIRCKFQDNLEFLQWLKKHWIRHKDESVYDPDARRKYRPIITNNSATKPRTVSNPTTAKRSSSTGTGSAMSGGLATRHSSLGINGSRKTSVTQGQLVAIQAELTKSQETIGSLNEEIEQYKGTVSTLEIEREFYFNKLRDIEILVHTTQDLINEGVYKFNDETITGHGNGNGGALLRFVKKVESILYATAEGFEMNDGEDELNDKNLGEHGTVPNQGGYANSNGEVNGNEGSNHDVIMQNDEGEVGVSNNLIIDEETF
# PROTOCOL DETAILS: cross-linking; BS3-H12/D12 600 µM, 35°C, 45 min; 60 µg Dam1c without or with 7.4 µg Bim1; cross-linked lysines identified by mass spectrometry
# PROTOCOL CONDITIONS: both partners purified
VALUE TYPE: binding result

Duo1 subunit within recombinant Dam1^WTc (natural protein, S. cerevisiae, UniProt P53168 1-247, looked up, Duo1, subunit of the Dam1 complex, S. cerevisiae; Stood in the cross-linking experiment as a subunit of m1; source: E. coli, purified as part of Dam1c) MSEQSQLDDSTIDKLIPQIFNEMRSNLNNTTNKFPKSTGGGASDNISANSNSIRSFNSITTQSLLKESESLDKITAMIKNVTAALKNNLPVYVNQVHEVCKSTNSILDSWINIHSQAGYIHKLMSDQTYLKLINDRLHNENVNTNDEDGSTLHNVIALKKKEILDLRQKLENRKGEKDAAPAKPPNQGLNPRYGVQSGRRPVPSAGISNNGRVRKTHVPASKRPSGIPRVTNRWTKPTASSSRKMFR = binds
